Target: Deoxyuridine 5'-triphosphate nucleotidohydrolase, mitochondrial (Homo sapiens)
Sequence (P33316 whole entry): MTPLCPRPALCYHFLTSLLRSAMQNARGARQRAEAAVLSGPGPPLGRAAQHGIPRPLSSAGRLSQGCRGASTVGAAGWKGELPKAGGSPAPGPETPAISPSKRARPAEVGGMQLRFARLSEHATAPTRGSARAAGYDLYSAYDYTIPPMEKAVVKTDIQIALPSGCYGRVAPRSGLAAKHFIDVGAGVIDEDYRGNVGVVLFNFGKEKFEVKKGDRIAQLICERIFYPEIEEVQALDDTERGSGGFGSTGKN
Consider the following molecules; for each one, report its Ki.

INSERT INTO results (molecule, reported_property, measured_value) VALUES
  ('CC(C)(C)[Si](C)(C)O[C@H]1C[C@H](n2ccc(=O)[nH]c2=O)O[C@@H]1COP(=O)(Oc1ccccc1)Oc1ccccc1', 'Ki', '> 1000 µM'),
  ('CC(C)(C)[Si](C)(C)O[C@H]1C[C@H](n2ccc(=O)[nH]c2=O)O[C@@H]1COC(c1ccccc1)(c1ccccc1)c1ccccc1', 'Ki', '> 1000 µM'),
  ('O=c1ccn(C2CC(O)C(CNP(=O)(Oc3ccccc3)Oc3ccccc3)O2)c(=O)[nH]1 (stereo not drawn)', 'Ki', '> 1000 µM');

Hey, quick one: what's Ki for each of these?
1. O=c1ccn(C2C=CC(CO[Si](c3ccccc3)(c3ccccc3)c3ccccc3)O2)c(=O)[nH]1 (stereo not drawn)
2. O=c1ccn([C@H]2C[C@H](O)[C@@H](CO[Si](c3ccccc3)(c3ccccc3)c3ccccc3)O2)c(=O)[nH]1
3. NCC1OC(n2ccc(=O)[nH]c2=O)CC1O (stereo not drawn)
4. O=c1ccn([C@H]2C[C@H](O)[C@@H](COP(=O)(Oc3ccccc3)Oc3ccccc3)O2)c(=O)[nH]1
5. NS(=O)(=O)OCC1C=CC(n2ccc(=O)[nH]c2=O)O1 (stereo not drawn)
6. NS(=O)(=O)NC(=O)OC[C@H]1O[C@@H](n2ccc(=O)[nH]c2=O)C[C@@H]1O
7. CC(C)[Si](OC[C@H]1O[C@@H](n2ccc(=O)[nH]c2=O)C[C@@H]1O)(C(C)C)C(C)C
8. CC(C)(C)[Si](C)(C)O[C@H]1C[C@H](n2ccc(=O)[nH]c2=O)O[C@@H]1COC(=O)NS(N)(=O)=O

1. > 1000 µM
2. 909 µM
3. > 1000 µM
4. 135 µM
5. > 1000 µM
6. > 1000 µM
7. > 1000 µM
8. > 1000 µM

Would you mind listing Ki for each of the following molecules?
1. O=c1ccn(C2CC(O)C(CNCc3ccccc3)O2)c(=O)[nH]1 (stereo not drawn)
2. O=C(NCC1OC(n2ccc(=O)[nH]c2=O)CC1O)c1ccccc1 (stereo not drawn)
3. CC(C)(C)[Si](C)(C)OC1CC(n2ccc(=O)[nH]c2=O)OC1CNP(=O)(Oc1ccccc1)Oc1ccccc1 (stereo not drawn)

1. > 1000 µM
2. 469 µM
3. 232 µM

Data provenance: ChEMBL document CHEMBL1140411
